Values from the supplement of paper PMC10567573

experiment: protein stability index of a GFP-peptide fusion (GPS, HEK-293T) (PSI 1-6); higher = more stable; details: treatment: DMSO; c terminus: a fixed tail appended;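 note: 24-mer peptide tiles fused after GFP, lentivirally expressed, FACS-sorted into six equal bins by GFP/DsRed ratio, decoded by Illumina sequencing, PSI is the read-weighted mean bin number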
Rule: protein stability index under 4 gives not satisfied, otherwise satisfied.

• DRLRDEELAELEDALRNLKCGSGA [TRADD] = satisfied
• QYLAERYKVNTPMLQSFINYCLLF [SLC35F2] = not satisfied
• VERILARGENLEHLRNKTEDLEAT [VAMP8] = satisfied
• TRQLSEENANLQEYVEKETQEKKR [MTUS2] = satisfied

Q. Does protein stability index meet or surpass 4 for GLGCKDLDLIFHVALPTEAEFQLV [TENT5C] ?
A. not satisfied

Q. Could you tell me if the measured protein stability index of IVIGILSAYISNYAFANVFHGWKY [SLC2A12] reaches 4 or more?
A. not satisfied

Q. Check if protein stability index >= 4 (inclusive). Item: FVFSTEERTQLRLESLEDTHIMKG [TRIB1]
A. not satisfied

Q. hey, is protein stability index for this one >= 4? EHCGAVCFVKDNPQKSYFIRLYGL [WAS]
A. not satisfied

Q. // inclusive: protein stability index at least 4? input: YTSAGTYGLDSVKKKCLEWLLNNL [GMCL1]
A. not satisfied

Q. Does the sequence VDENDSHEGEDQFLSLEASTETLV [DLC1] have recorded protein stability index that is 4 or more?
A. satisfied

Q. Kindly determine if protein stability index recorded for HCMAPPLLHLDLKPANILLDAHYH [RIPK4] is above or exactly 4.
A. not satisfied

* * *

assay: protein stability index of a GFP-peptide fusion (GPS, HEK-293T) (PSI 1-6); higher = more stable; details: treatment: MLN4924 1 uM, 8 h; c terminus: a fixed tail appended
experimental.endpoint: protein stability index
Write no unit; give the number alone.

• LSLLGAVGLAAVNSMPVDNRNHNE [CHGB] = 3.54
• EVTDTGDPIVRPLWWIAPGDETAH [MYORG] = 4.38
• MHLNAEGMLSYCDRYSEGIKHVLQ [CRYL1] = 2.32
• CFKAKLHRKRGSQPPDMASALTDR [RSPH3] = 3.95
• QFHALQSKLEERFGPDSKSSALAC [NCF4] = 3.6
• LISCSEDGSVRIWELREKQQLAAE [WDR41] = 2.97
• AAARIRAQVPDTRWSRVGGQRFYS = 3
• GGGGVAAVVVLDQGSRHWQKLREE [DUSP5] = 2.65
• AELAGVIKRLWKDSGVQACFNRSR [GNAI1] = 2.42
• GNPSTNSRVTASSGITIPKPPKPP [SMARCE1] = 4.7

Measured protein stability index, KELGQSQKEQGLSDNILSPVMNGG [PDZK1] : 5.09

Entry WFQRQYLSTPDSQSLRCDLIRYIC [INTS3] , protein stability index reported as 2.28

* * *

assay: protein stability index of a GFP-peptide fusion (GPS, HEK-293T) (PSI 1-6); higher = more stable; settings: treatment: DMSO; c terminus: a fixed tail appended
experimental.endpoint: protein stability index
No unit in the answer, only the number.

Check out these entries, answers already filled in.
- ERAELAASLGLTQTQVKIWFQNKR [DLX1]: 3.59
- LWCANILGYAVSTFAMVKGYFFPT [DHCR7]: 4.05
- GRVVPESQCQMETKPLAIHPCGDK [ADAMTSL2]: 4.53
- NEVIADINCKGRSKSNLGWTPLHL [OSBPL1A]: 2.48
- ATGDTALTYACENGHTDVADVLLQ [ANKRD17]: 4.41

For reference, reported protein stability index for KKENKMTWAPKNKGGEERKAEGGE [IRX6] stands at 5.39

For record VQSLQLSPRTRGSWSQPQPLKAPC [RASAL3] the listed protein stability index is 3.54

// recorded protein stability index for TVERPFYDLWASDNPLDRPLVGQD [NOP53] : 4.09

Per the records, this sequence ( LIGLPPEDDWPRDVSLPRGAFPPR [CDK4] ) has protein stability index equal to 3.49

response.value for IAAATSVLKTRFSYAFPKEFPYRM [CCNC] (field: protein stability index) = 2.08
